- Subject of test: wild type PRC2 (wtPRC2) complex (Homo sapiens, UniProt O75530)
- Sequence (O75530 whole entry): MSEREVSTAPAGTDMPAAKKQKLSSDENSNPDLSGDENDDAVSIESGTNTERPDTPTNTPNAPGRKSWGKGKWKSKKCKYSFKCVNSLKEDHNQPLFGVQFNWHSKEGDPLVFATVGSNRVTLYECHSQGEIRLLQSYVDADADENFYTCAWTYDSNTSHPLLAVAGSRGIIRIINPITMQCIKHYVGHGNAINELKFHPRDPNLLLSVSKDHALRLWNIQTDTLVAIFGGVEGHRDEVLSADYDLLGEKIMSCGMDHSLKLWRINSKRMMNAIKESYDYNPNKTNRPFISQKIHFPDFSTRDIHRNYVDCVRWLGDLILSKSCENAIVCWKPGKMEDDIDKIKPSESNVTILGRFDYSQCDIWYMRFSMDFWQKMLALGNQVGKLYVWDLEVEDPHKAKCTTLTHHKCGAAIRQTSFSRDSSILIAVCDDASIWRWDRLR
- Sequence (Q15910 whole entry partner): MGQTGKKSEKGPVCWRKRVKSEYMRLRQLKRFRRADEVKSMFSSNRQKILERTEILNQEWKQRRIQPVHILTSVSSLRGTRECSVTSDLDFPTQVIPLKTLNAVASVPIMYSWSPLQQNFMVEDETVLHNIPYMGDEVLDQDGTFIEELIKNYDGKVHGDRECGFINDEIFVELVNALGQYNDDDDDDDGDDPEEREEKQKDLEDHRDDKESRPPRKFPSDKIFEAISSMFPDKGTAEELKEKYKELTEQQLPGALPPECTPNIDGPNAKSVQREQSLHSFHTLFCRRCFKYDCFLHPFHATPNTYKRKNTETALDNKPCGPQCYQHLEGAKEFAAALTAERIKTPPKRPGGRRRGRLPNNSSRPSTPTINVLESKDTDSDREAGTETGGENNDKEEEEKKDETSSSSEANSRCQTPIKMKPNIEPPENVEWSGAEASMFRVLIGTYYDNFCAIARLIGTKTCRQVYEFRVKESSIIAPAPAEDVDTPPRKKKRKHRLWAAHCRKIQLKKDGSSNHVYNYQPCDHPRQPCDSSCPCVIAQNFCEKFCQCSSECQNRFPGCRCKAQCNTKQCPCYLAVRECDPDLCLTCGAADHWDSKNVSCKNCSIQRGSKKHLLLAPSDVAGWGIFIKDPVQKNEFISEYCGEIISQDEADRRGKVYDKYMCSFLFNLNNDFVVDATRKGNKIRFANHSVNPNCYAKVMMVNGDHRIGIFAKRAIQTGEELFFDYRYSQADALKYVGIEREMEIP
- Sequence (Q15022 whole entry partner): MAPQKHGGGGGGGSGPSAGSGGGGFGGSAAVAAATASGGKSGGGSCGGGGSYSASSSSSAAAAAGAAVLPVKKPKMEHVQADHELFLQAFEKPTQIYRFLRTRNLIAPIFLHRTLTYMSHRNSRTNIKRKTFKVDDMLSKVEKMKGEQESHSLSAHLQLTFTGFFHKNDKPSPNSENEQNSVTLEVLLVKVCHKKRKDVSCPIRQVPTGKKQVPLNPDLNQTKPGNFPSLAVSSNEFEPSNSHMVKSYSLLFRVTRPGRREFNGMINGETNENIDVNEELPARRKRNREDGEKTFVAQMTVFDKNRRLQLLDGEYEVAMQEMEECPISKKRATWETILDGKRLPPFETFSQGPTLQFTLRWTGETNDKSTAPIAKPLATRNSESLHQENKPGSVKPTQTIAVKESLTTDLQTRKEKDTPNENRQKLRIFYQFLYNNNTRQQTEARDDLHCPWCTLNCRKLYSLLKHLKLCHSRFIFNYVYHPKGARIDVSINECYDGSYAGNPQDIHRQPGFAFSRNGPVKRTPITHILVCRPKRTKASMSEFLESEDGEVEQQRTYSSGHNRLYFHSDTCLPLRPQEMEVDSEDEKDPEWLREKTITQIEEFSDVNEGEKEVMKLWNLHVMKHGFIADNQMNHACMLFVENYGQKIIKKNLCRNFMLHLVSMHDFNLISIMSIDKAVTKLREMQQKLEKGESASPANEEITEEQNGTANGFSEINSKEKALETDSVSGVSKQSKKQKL
- Sequence (Q09028 whole entry partner): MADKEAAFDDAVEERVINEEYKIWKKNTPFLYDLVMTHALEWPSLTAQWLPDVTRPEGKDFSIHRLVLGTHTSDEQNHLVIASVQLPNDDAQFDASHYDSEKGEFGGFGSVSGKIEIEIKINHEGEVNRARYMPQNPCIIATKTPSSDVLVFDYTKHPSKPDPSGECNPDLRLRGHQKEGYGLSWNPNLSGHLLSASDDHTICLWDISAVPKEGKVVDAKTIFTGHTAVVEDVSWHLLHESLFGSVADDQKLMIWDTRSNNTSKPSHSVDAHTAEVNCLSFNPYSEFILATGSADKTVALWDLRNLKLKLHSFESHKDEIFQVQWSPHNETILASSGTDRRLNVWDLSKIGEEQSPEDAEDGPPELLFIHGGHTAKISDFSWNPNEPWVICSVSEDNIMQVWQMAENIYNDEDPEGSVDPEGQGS
- Sequence (Q6ZN18 whole entry partner): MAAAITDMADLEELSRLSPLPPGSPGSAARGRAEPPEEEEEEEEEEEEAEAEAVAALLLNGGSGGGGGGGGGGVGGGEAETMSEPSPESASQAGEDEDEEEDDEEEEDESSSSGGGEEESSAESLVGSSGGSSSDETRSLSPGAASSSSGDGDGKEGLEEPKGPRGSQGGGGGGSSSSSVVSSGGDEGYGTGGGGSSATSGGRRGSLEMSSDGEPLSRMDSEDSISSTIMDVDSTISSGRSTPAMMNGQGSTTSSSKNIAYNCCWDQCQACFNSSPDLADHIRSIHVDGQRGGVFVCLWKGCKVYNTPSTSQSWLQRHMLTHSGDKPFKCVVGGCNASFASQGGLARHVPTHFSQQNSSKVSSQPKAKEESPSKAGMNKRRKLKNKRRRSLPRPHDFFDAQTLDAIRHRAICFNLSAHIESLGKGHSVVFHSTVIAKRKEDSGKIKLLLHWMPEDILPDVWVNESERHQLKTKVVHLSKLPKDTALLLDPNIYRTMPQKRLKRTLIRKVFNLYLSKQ
- Protocol description: EED LC-MS assay (SAH production by PRC2)
- Type: biochemical
- Run parameters: PRC2 LC-MS assay; read-out: (b) IC50 EED LC-MS Qualified
Measured pIC50 of individual entries
Note on pIC50: it is the negative log10 of concentration, concentration in mol/L.

Please report the recorded pIC50 for `COc1cccc(F)c1CNc1ccc(-c2ccc(CNC(C)=O)nc2)c2nncn12` . 6.80

Please report the recorded pIC50 for `COc1cccc(F)c1CNc1ccc(-c2cnn(C)c2CO)c2nncn12` . 7.23

Please report the recorded pIC50 for `CCc1ccncc1-c1ccc(NCc2c(F)cccc2OC)n2cnnc12` . 7.24

Please report the recorded pIC50 for `COc1cccc(F)c1CNc1ccc(-c2ccncc2C)c2nncn12` . 7.57

Please report the recorded pIC50 for COc1cccc(F)c1CNc1ccc(-c2ccc(C(C)O)nc2)c2nncn12 (centres unmarked) . 6.80

Please report the recorded pIC50 for `COc1cccc(F)c1CNc1ccc(-c2cnccc2F)c2nncn12` . 7.35

Please report the recorded pIC50 for `COc1cccc(F)c1CNc1ccc(-c2ccc(C)nc2C)c2nncn12` . 7.38

Please report the recorded pIC50 for `COc1cc(F)cc(F)c1CNc1ccc(-c2cccnc2)c2nncn12` . 6.85

###

- Tested on: H3K27 methylation in G401 cell
- Protocol description: ELISA (H3K27 methylation) assay in G401 cells
- Assay type: cell-based, human
- Run parameters: Homo sapiens, G-401, read-out: (c) IC50, ELISA Qualified
Quantity: log10(IC50) (log10 of the value in nM)
Please interpret these as log10 of IC50 where IC50 is in nM.

Example cases with answers are listed next.
Compound: COc1ccccc1CNc1ccc(-c2ccncc2)c2nncn12 [Example 24]
log10(IC50): 1.68
//
Compound: COc1ccccc1CNc1ccc(-c2ccc([S+](C)[O-])cc2)c2nncn12 (centres unmarked) [Example 102]
log10(IC50): 1.84
//
Compound: COc1ccccc1CNc1ccc(-c2ccc(CN3CCCC3)cc2)c2nncn12 [Example 60]
log10(IC50): 1.75
//
Compound: COc1ccccc1CNc1ccc(-c2ccc(CN3CCN(C)CC3)cc2)c2nncn12 [Example 39]
log10(IC50): 1.57
//
Compound: COc1ccc(F)cc1CNc1ccc(-c2ccc(S(C)(=O)=O)cc2)c2nncn12 [Example 116]
log10(IC50): 2.87
//
Compound: COc1ccccc1CNc1ccc(-c2ccc(CN3CC(F)C3)cc2)c2nncn12 [Example 66]
log10(IC50): 1.48

Fill in the recorded log10(IC50) for this compound, with H3K27 methylation in G401 cell as test system: COc1cccc(F)c1CNc1ccc(-c2cnc(N(C)C)nc2)c2nncn12 [Example 141] 2.88

Fill in the recorded log10(IC50) for this compound, with H3K27 methylation in G401 cell as test system: COc1cccc(F)c1CNc1ccc(-c2nnc(C)o2)c2nncn12 [Example 9] 0.38

Fill in the recorded log10(IC50) for this compound, with H3K27 methylation in G401 cell as test system: COc1ccc(F)c(CNc2ccc(-c3ccncc3)c3nncn23)c1 [Example 99] 2.59

Fill in the recorded log10(IC50) for this compound, with H3K27 methylation in G401 cell as test system: COc1cc(F)ccc1CNc1ccc(-c2cccnc2)c2nncn12 [Example 93] 2.60

Fill in the recorded log10(IC50) for this compound, with H3K27 methylation in G401 cell as test system: COc1ccccc1CNc1ccc(-c2ccc(C)nc2)c2nncn12 [Example 111] 1.75

Fill in the recorded log10(IC50) for this compound, with H3K27 methylation in G401 cell as test system: CCN1CCC(S(=O)(=O)c2ccc(-c3ccc(NCc4ccccc4OC)n4cnnc34)cn2)CC1 [Example 143] 1.73

Fill in the recorded log10(IC50) for this compound, with H3K27 methylation in G401 cell as test system: COc1cccc(F)c1CNc1ccc(-c2ccc(O)nc2)c2nncn12 [Example 151] 1.90

Fill in the recorded log10(IC50) for this compound, with H3K27 methylation in G401 cell as test system: COc1cccc(F)c1CNc1ccc(-c2cncc(F)c2)c2nncn12 [Example 158] 1.29
